- system-name: Neu5Ac(a2-3)Gal(b1-3)[Fuc(a1-4)]GlcNAc(b1-3)Gal(b1-4)[Fuc(a1-3)]GlcNAc
- assay-explanation: glycan array binding signal (z-score within array); higher = stronger binding
- condition-context: glycan notation: IUPAC condensed, linker removed
The entries come from a sample that favours the strongest signals as a whole.
Please note: y applies when glycan array binding signal (z-score) is 0.7 or greater, and n applies otherwise.

# input Quick check: does Tp0751, 83732 (protein) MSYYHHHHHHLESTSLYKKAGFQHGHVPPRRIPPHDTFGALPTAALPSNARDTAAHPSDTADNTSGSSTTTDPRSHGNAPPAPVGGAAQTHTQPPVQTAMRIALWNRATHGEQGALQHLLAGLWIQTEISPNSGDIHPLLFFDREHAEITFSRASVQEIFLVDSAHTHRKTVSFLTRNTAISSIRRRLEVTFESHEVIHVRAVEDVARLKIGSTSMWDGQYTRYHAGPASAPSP have glycan array binding signal (z-score) greater than or equal to 0.7?
# output n

# input Also need BabA (Helicobacter pylori), O52269_HELPY (protein) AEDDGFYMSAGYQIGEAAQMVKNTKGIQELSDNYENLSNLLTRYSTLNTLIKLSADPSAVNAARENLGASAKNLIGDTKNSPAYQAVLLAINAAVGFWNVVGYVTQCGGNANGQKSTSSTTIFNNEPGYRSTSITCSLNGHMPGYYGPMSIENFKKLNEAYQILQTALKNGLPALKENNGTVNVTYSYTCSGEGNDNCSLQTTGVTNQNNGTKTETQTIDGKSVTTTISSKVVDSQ , thanks.
# output y

# input Also need PEB1 (Campylobacter jejuni), Q0P9X8 (protein) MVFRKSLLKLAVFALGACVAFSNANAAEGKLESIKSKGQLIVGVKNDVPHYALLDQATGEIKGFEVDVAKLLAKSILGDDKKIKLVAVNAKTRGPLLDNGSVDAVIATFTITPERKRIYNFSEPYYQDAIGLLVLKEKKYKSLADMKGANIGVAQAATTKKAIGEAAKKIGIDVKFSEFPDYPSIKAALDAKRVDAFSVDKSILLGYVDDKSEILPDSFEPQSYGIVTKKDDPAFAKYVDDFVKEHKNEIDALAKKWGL , thanks.
# output n

# input Also need Clone646PsrP (Streptococcus pneumoniae) (protein) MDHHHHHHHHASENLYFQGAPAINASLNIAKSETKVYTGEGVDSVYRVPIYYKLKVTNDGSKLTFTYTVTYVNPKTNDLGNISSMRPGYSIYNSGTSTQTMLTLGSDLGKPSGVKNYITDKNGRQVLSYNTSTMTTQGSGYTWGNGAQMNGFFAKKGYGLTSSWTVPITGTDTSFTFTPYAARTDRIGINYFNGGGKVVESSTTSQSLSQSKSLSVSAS , thanks.
# output n

# input Also need LF82 (Escherichia coli) (protein) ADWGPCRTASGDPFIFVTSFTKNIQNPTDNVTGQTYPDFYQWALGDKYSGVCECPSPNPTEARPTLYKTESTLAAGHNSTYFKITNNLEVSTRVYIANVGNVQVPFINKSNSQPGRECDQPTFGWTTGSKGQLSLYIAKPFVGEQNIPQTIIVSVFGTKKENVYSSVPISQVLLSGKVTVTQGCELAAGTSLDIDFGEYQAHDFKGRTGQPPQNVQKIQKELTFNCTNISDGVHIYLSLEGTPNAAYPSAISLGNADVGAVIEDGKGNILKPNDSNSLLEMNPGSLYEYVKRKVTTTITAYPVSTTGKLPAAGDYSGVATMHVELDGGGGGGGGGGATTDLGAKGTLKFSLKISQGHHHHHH , thanks.
# output n

From: the supplement of paper PMC8728848
